- targetSystem: Epithelial discoidin domain-containing receptor 1 (Homo sapiens)
- Sequence (Q08345 whole entry, the tested form may be a part): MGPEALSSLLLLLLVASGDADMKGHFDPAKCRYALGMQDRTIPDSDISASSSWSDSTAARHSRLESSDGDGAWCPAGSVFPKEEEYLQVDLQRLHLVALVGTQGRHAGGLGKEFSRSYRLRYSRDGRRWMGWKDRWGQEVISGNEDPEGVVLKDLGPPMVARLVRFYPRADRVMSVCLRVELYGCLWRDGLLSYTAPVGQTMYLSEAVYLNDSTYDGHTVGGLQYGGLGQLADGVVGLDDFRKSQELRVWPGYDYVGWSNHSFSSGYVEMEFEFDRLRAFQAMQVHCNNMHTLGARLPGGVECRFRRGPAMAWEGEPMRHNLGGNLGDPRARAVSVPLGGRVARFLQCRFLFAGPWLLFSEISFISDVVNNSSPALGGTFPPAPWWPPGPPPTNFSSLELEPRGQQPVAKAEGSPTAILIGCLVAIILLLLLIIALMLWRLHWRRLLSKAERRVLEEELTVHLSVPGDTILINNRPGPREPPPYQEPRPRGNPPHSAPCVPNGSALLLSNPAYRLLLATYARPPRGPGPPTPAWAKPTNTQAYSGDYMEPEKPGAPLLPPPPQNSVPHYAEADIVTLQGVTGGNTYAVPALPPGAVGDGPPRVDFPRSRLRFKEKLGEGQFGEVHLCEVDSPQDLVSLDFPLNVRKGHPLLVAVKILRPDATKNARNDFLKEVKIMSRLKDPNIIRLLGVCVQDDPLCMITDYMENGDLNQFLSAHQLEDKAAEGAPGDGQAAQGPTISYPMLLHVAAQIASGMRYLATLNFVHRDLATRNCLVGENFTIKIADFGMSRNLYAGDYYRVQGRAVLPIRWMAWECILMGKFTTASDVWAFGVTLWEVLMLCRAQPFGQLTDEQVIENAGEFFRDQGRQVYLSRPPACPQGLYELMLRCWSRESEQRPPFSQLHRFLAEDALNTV
measure: IC50 (µM)
Report the value in µM with no unit label.

(Q) Form: Entry = Cc1ccc(-n2c(=O)ccc3ccc4ccc(-c5cnn(C)c5)cc4c32)cc1NC(=O)/C=C/CN(C)C | System = Epithelial discoidin domain-containing receptor 1 (Homo sapiens) | IC50 = ____
(A) 5.02

---

- testName: AUC (infinity) in Swiss albino mouse at 10 mg/kg, ip by LC/MS/MS method
- Type: ADME, organism-based
- Set-up: dose 10 mg/kg, route intraperitoneal, time infinity
- recordedConditions: in vivo
measure: AUC(0-inf) (µg·h/mL)
Report the value in µg·h/mL with no unit label.

(Q) Quick check: AUC(0-inf) of Cc1ccc(-n2c(=O)ccc3ccc4ccc(-c5cnn(C)c5)cc4c32)cc1NC(=O)/C=C/CN(C)C ?
(A) 1.21
